Reference for the values: ChEMBL document CHEMBL1201862

- Tested on: CCRF-CEM
- TEST_DETAILS: NCI tumour cell line growth inhibition, 48 h
Calls of active or inactive are those of the source. No stated cut-off is given here; in the data, active = GI50 up to about 1.1 µM and inactive = higher.
PROPERTY_LABEL: GI50

Example results:
COMPOUND | OBSERVED
CC(=O)OCC12C(OC(C)=O)C(=O)C3C(OC(C)=O)C14OC3(C)COC(=O)c1cccnc1C(C)C(C)C(=O)OC(C(OC(C)=O)C2OC(C)=O)C4(C)O (stereo not drawn) | > 100 µM (inactive)
CCOC(=O)C1N(S(=O)(=O)c2ccc(C)cc2)CCC12c1ccccc1N(C(C)=O)C2c1ccc(OC)c(OC)c1 (stereo not drawn) | > 100 µM (inactive)
CC(=O)C(C)(C)CCC(C)(C)C(C)=O | > 100 µM (inactive)
OCC1OC(n2cnc3c2N=CNC[C@H]3O)C(Cl)C1O (stereo partly drawn) | > 100 µM (inactive)
CC(C)C1COC(c2ccc3ccccc3c2-c2c(O[Si](C)(C)C(C)(C)C)ccc3ccccc23)=N1 (stereo not drawn) | 18.1 µM (inactive)

Input: Report GI50 for "CC(C)OP(=O)(OC(C)C)/C(I)=N/Nc1ccc([N+](=O)[O-])cc1" please.
Output: > 100 µM (inactive)

Input: Name the recorded GI50 for "COc1ccc2c(=O)c3cc([N+](=O)[O-])ccc3n(C)c2c1" .
Output: > 100 µM (inactive)

Input: Which GI50 is listed for "C=C1C(=O)[C@]23C[C@H]1C[C@@H](O)[C@H]2[C@]1(COC3=O)[C@@H](OC(C)=O)CC[C@@](C)(COC(C)=O)[C@H]1C=O" ?
Output: 7.28 µM (inactive)
